- Test system: S. epidermidis RP62A SpsIB(S29P)
- method description: In vitro antimicrobial activity, MIC by broth micro-dilution
- Type: cell-based
- experimental conditions: Staphylococcus epidermidis
- Experimental: In vitro antimicrobial activity of each compound was determined by measuring minimal inhibitor concentrations (MICs) using the broth micro-dilution technique as approved by the Clinical and Laboratory Standards Institute (CLSI). The microbiological panel examined contains a number of bacterial species including E. coli MG1655, P. aeruginosa, S. aureus, and S. epidermidis. […] MICs were periodically checked plating serial dilutions of MIC wells and quantitatively determining viable colonies.
Reported MIC values for the following compounds.
measure name: MIC

[[record]]
compound = "CCCCCCCCCCCCCCCC(=O)N(C)[C@H](CO)C(=O)N[C@H](C)C(=O)NCC(=O)N(C)[C@@H]1C(=O)N[C@@H](C)C(=O)N[C@H](C(=O)N[C@H](C)C(=O)O)Cc2ccc(O)c(c2)-c2cc1ccc2O"
result = "> 64 µg/mL"

[[record]]
compound = "CCCCCCCCCCCCCCCC(=O)N(C)[C@H](CO)C(=O)N[C@H](C)C(=O)NCC(=O)N(C)[C@@H]1C(=O)N[C@@H](C)C(=O)N[C@H](C(N)=O)Cc2ccc(O)c(c2)-c2cc1ccc2O"
result = "> 64 µg/mL"

[[record]]
compound = "CCCCCCCCCCCCCCCC(=O)N(C)[C@H](CO)C(=O)N[C@H](C)C(=O)NCC(=O)N(C)[C@@H]1C(=O)N[C@@H](C)C(=O)N[C@H](C(=O)N[C@H](C)C(=O)C(=O)N(C)C)Cc2ccc(O)c(c2)-c2cc1ccc2O"
result = "> 64 µg/mL"

[[record]]
compound = "CCCCCCCCCCCCCCCC(=O)N(C)[C@H](CO)C(=O)N[C@H](C)C(=O)NCC(=O)N(C)[C@@H]1C(=O)N[C@@H](C)C(=O)N[C@H](C(=O)O)Cc2ccc(O)c(c2)-c2cc1ccc2O"
result = "8 µg/mL"

[[record]]
compound = "CCCCCCCCCCCCCCCC(=O)N(C)[C@H](CO)C(=O)N[C@H](C)C(=O)NCC(=O)N(C)[C@@H]1C(=O)N[C@@H](C)C(=O)N[C@H](C(=O)N[C@@H](C)C(=O)C(=O)N(C)C)Cc2ccc(O)c(c2)-c2cc1ccc2O"
result = "> 64 µg/mL"

[[record]]
compound = "CCCCCCCCCCCCCCCC(=O)N(C)[C@H](CO)C(=O)N[C@H](C)C(=O)NCC(=O)N(C)[C@@H]1C(=O)N[C@@H](C)C(=O)N[C@H](C(=O)NCC(N)=O)Cc2ccc(O)c(c2)-c2cc1ccc2O"
result = "> 64 µg/mL"

[[record]]
compound = "CCCCCCCCCCCCCCCC(=O)N(C)[C@H](CO)C(=O)N[C@H](C)C(=O)NCC(=O)N(C)[C@@H]1C(=O)N[C@@H](C)C(=O)N[C@H](C(=O)N[C@@H](C)C(=O)N2CCCC2C(N)=O)Cc2ccc(O)c(c2)-c2cc1ccc2O (stereo partly drawn)"
result = "> 64 µg/mL"

[[record]]
compound = "CCCCCCCCCCCCCCCC(=O)N(C)[C@H](CO)C(=O)N[C@H](C)C(=O)NCC(=O)N(C)[C@@H]1C(=O)N[C@@H](C)C(=O)N[C@H](C(=O)N[C@@H](C)C(=O)N2CCC[C@H]2C(=O)O)Cc2ccc(O)c(c2)-c2cc1ccc2O"
result = "64 µg/mL"

[[record]]
compound = "CCCCCCCCCCCCCCCC(=O)N(C)[C@H](CO)C(=O)N[C@H](C)C(=O)NCC(=O)N(C)[C@@H]1C(=O)N[C@@H](C)C(=O)N[C@H](C(=O)NCC(=O)O)Cc2ccc(O)c(c2)-c2cc1ccc2O"
result = "> 64 µg/mL"


Data credit: patent US10501493B2
